Recorded values, source patent US20120269814A1.

Target: T1, rhu-c-Mpl (AA1-490-6H) (human, UniProt P40238 26-490)
T1 construct: Entire 490 amino acid extracellular domain with six C-terminal histidines, expressed in CHO cells; also called recombinant human c-Mpl protein; soluble c-Mpl
T1 sequence: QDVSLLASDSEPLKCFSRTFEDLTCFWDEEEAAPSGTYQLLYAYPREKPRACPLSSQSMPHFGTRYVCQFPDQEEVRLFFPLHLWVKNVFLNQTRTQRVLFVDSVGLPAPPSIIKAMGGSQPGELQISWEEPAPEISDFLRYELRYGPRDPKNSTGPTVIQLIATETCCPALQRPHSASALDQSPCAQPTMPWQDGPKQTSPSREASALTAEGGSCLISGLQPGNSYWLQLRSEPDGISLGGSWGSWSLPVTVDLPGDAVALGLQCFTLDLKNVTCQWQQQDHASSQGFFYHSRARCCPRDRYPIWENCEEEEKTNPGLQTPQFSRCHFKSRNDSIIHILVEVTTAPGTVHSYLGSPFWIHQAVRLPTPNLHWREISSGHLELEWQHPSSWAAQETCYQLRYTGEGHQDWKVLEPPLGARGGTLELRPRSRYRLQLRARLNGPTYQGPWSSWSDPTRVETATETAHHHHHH
Assay: solution-equilibrium Biacore with soluble rhu-c-Mpl, KinExA Pro fit
QUANTITY: Kd (pM)
Report only the number, with the unit pM understood.

Reference set, count: 4
mAb 1.78 (antibody, IgG1, V domains shown, also called A3) VH: QVQLQQSGPELVKPGASVKMSCKASGYAFSSSWLNWVRQRPGKGLEWIGRIYPGDGENHYNGKFKGKATLTADKSSSTGYMQLSSLTSEDSAVYFCASYYEGGYWGQGTLITVSA VL: DIVMTQAAPSIPVTPGESVSISCRSDKSLLHSNGNTYLFWFLQRPGQSPQLLIYRMSNLASGVPDRFSGSGSGTAFTLRISGVEAEDVGVYYCMQHLEYPYTFGGGTKLEIK; 72
mAb 1.111 (antibody, IgG1, V domains shown, also called A4) VH: DVQLQESGPGLVKPSQSLSLTCTVTGYSITIDYTWNWIRQFPGNKLEWMGYITYSGSTDYNPSLKSRSSITRDTSMNQFFLQLNSVTTEDTATYYCARLGRRYALDYWGQGTSVTVSS VL: DIQMTQSSSSFSVSLGDRVTITCKASEDIYIRLAWYQQKPGNAPRLLISAATSLETGIPSRFSGSGSGEDYTLTITSLQTEDVATYYCQQYWTTPWTFGGGTKLEIKR; 36
mAb 1.75 (antibody, IgG2b, V domains shown, also called A2) VH: EVQLVESGGGLVQPKGSLKLSCAASGFSFNTYAMNWVRQAPGKGLEWIAHIRSKSNNFATYYADSVKDRFSISRDASENILFLQMNNLKTEDTAMYYCVRQGGDFPMDYWGQGTSVTVSS VL: QIVLTQSPAIMSASPGEKVTISCSASSSVSYMYWYQQKPGSSPKPWIYRTSNLASGVPARFSGSGSGTSYSLTISNMEAEDAAAYYCQQYHSYPTTFGGGTKLEVK; 10
mAb 1.169 (antibody, IgG1, V domains shown, also called A6) VH: QVQLQQSGPELVKPGASVKISCKASGYGFSSSWMNWVKQRPGKGLEWIGRIYPGDGETSYNGEFKGKATLTADKSSSTAYMQLSSLTSEDSAVYFCASYYEGGYWGQGTLVTVSA VL: DIVMTQAAPSLPVTPGESVSISCRSSKSLLHSNGNTYLFWFLQRPGQSPHLLIYRMSNLASGVPDRFSGSGSGTAFTLRISRVEAEDVGVYYCMQHLEYPYTFGGGTKLEIKR; 480

[Q] Tell me Kd reported for mAb 1.6 (antibody, IgG2b, V domains shown, An Alexa Fluor 647 conjugate was used for CD34+ cell staining; also called Ab 1.6.1; A1) VH: DVQLQESGPGLVKPSQSLSLTCTVTGYSITSDYTWNWIRQFPGNKLEWMGYITYSGSTSYNPSLKSRNSITRDTSKNQFFLQLNSVTTEDTATYYCARLGRRYTMDYWGQGTSVTVSS VL: DIQMTQSSSSFSVSLGDRVTITCMASEDIYIRLAWYQQKPGNAPRLLISAATSLETGVPSRFSGSGSGKDYTLSITSLQTEDVGTYYCQQYWSSPWTFGGGTKLEIN
[A] 36

[Q] Tell me Kd reported for mAb 1.36 (antibody, IgG1, V domains shown, also called A5) VH: QVQLQQSGPELVKPGASVKISCKASGYGFSNSWMNWVRQRPGKGLEWIGRIYPGDGETSYNGEFVGKATLTADKSSSTAYMHLSSLTSEDSAVYFCASYYEGGYWGQGTLVTVS VL: DIVMTQAAPSVPVTPGESVSISCRSSKSLLHSNGNTYLYWFLQRPGQSPQLLIYRMSNLASGVPDRFSGSGSGTAFTLRISRVEAEDVGVYYCMQHLEYPYTFGGGTKLEIKR
[A] 450
